Test system: SK-MEL-5 melanoma
procedure.summary: NCI-60 one-dose screen, 48 h
condition.label: 10 µM unless noted
About 83,000 compounds went through this panel and 20% of them were active in at least one assay; those are over-represented in the sample as a whole. Active and inactive are the calls of the source. Rule for the calls: active = growth percent below 10; inactive = the rest.
Answer with one of the outcomes given here: 1 = active, 0 = inactive

Below, 3 molecules whose answers are already recorded.
CCCc1nn2c(CCC(=O)c3nc4ccc([N+](=O)[O-])cc4[nH]3)nnc2s1    0
COc1cc(NC(=O)c2cc(OC)c3ccn(C)c3c2)cc2c1C[C@]1(C)CC[C@@H](O)C(C)(C)[C@H]1O2    0
COc1ccc2c(-c3ccc(F)cc3)c(C#N)c(=NC(C)=O)oc2c1    0

Exercise: Recorded test outcome, item CCOC(=O)C1CN(Cc2ccccc2)C(=O)C1=O (centres undefined)
Key: 0

Exercise: Request: CC/C(=C(\CC)c1ccc(OCCN(CC)CC)cc1)c1ccc(OCCN(CC)CC)cc1
Key: 1

Exercise: Request: O=c1c2ccccc2sc2c(NCCCNCCO)nc3ccccc3c12
Key: 1

Exercise: Request: O=C(Nc1ccc(-n2ccc3c(NC(=O)c4ccccc4)ncnc32)cc1)c1cccc(C(F)(F)F)c1
Key: 0

Exercise: Request: Cc1ccc(-c2nc3c(N=Nc4ccc(S(N)(=O)=O)cc4)c(N)nn3c(N)c2C#N)cc1
Key: 1

Exercise: Request: CN(C)CCCOc1c(Br)cc(/C=C/C(=O)N(C)CCc2cc(Br)c(OCCCN(C)C)c(Br)c2)cc1Br
Key: 0

Exercise: Request: S=c1n(CNc2ccc(Cl)nn2)nc(-c2cc(Cl)cc(Cl)c2Cl)n1/N=C/c1ccc(Cl)cc1
Key: 0

Exercise: Request: CCOC(=O)c1noc2c1CCc1cn(Cc3cc(OC)cc(OC)c3)cc1-2
Key: 0

Exercise: Request: CN1C(=O)C2(NN=C(c3cccc4ccccc34)S2)c2ccccc21 (centres undefined)
Key: 0

Exercise: Request: Cc1cc(N2CCOCC2)nc(N(CCNc2ccnc3cc(Cl)ccc23)Cc2ccco2)n1
Key: 0

Exercise: Request: O=C(Nc1ccc(-n2cc(-c3ccncc3)c(-c3ccc(O)c(Cl)c3)n2)cc1)c1cc(C(F)(F)F)cc(C(F)(F)F)c1
Key: 0

###

Test system: SW-620 colon
procedure.summary: NCI-60 one-dose screen, 48 h
condition.label: 10 µM unless noted
The panel holds about 83,000 compounds, 20% with a hit somewhere; the sample as a whole holds those more often. Activity calls are given as the source filed them. The calls were made as follows: active = growth percent below 10; inactive = the rest.
Answer with one of the outcomes given here: True for active, False for inactive

Cc1ccc[n+](CC(=O)c2cccc3ccccc23)c1    False
O=C(Nc1ccc(-n2ccc3c(NC(=O)c4ccccc4)ncnc32)cc1)Nc1ccc(Cl)c(Cl)c1    True
COC1=C(OC)C(=O)C=CC1=O    False
COc1ccc2c(c1)nnc1c3cccnc3[nH]c21    True
Cc1ccc(/C=C2/C(=O)Nc3cc(Cl)c(-c4csc(N)n4)cc32)cc1    False

Could you now consider this next compound?
Exercise: Recorded test outcome, item COc1ccc(-c2ccc(NC(=O)Nc3cccc(C(F)(F)F)c3)c(C)n2)cc1
Key: False

###

System: 786-0 renal
procedure.summary: NCI-60 one-dose screen, 48 h
condition.label: 10 µM unless noted
Compounds without any hit were thinned out: in the full panel of roughly 83,000, 20% have a hit. The source made the active and inactive calls. The calls were made as follows: active = growth percent below 10; inactive = the rest.
Answer with one of the outcomes given here: active, inactive

Below, 4 molecules whose answers are already recorded.
Cc1ccc[n+](CC(=O)c2cccc3ccccc23)c1    inactive
Cc1ccc2c(C3C(C#N)=C(N)Oc4cc5ccccc5cc43)cc(=O)oc2c1 (centres undefined)    inactive
CC(=O)N1N=C(CCC(=O)c2nc3ccc([N+](=O)[O-])cc3[nH]2)OC1c1ccc(O)cc1 (centres undefined)    inactive
C=C1C(=O)O[C@H]2[C@H]1CC/C(COC(=O)c1ccc(Cl)nc1)=C\CC[C@@]1(C)O[C@@H]21    active

Exercise: Recorded test outcome, item Nn1c(SCC(=O)Nc2cc(Cl)c(Cl)cc2Cl)nnc1-c1cc(F)c(Cl)cc1Cl
Key: inactive

Exercise: Request: C=C(C)[C@@H]1C/C=C(\COC(=O)[C@H](OC(C)=O)C(NC(=O)c2ccccc2)c2ccccc2)CC[C@H]2O[C@]2(C)CC/C=C(\C)CC1 (some centres undefined)
Key: inactive

Exercise: Request: CN(C)CCCOc1c(Br)cc(/C=C/C(=O)N(C)CCc2cc(Br)c(OCCCN(C)C)c(Br)c2)cc1Br
Key: inactive

Exercise: Request: Nc1nc(Cl)cc(NCCCCNc2cc(Cl)nc(N)n2)n1
Key: inactive
